Target: T1, His-tagged PTB domain of RABGAP1
T1 chain: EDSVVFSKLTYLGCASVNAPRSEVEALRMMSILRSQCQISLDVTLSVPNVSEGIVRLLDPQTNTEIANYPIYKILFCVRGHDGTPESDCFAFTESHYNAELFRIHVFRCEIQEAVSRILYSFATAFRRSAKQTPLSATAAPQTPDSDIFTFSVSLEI
Experiment: ITC; APP peptides titrated into about 100 μM His-PTB of RABGAP1 in 2.4 μl injections at 20 °C; 100 mM Tris pH 7.4, 300 mM NaCl, 1 mM TCEP; Nano ITC; three independent runs for the WT peptide
Conditions: both partners purified
measurement.name: Kd

[
  {
    "binder": "MQQNGYENPTYKFFEQMQN (peptide, UniProt P05067-4 677-695, looked up, amyloid precursor protein (APP), cytosolic tail from M677 (MQQ...); numbers count on: APP isoform 695; The peptide probably runs to the C-terminus of APP695 (residue 695); also called APPwt; WT APP peptide) [WT APP tail peptide starting from the MQQ sequence at position 677]",
    "measurement.name": "Kd",
    "value.reported": "~61 µM"
  }
]
